protocol_description: solvent given as SMILES
setup_conditions: in ClCCl
endpoint: emission maximum (nm)

INSERT INTO assay_data (molecule_smiles, endpoint, uom, value_measured) VALUES
  ('CC(C)(C)c1cc(-n2c(-c3ccc(C(=C(c4ccccc4)c4ccccc4)c4ccccc4)cc3)cc3c2cc(-c2ccc(C(=C(c4ccccc4)c4ccccc4)c4ccccc4)cc2)n3-c2cc(C(C)(C)C)cc(C(C)(C)C)c2)cc(C(C)(C)C)c1', 'emission maximum', 'nm', 586),
  ('Cn1cc(-c2nc3ccccc3nc2C#Cc2ccccc2)c2ccccc21', 'emission maximum', 'nm', 510),
  ('[O-][n+]1c(/C=C/c2ccc(/C=C/c3ccccc3)cc2)nc(N2CCOCC2)c2c1CCCC2', 'emission maximum', 'nm', 531),
  ('F[B-]1(F)Oc2ccc3ccccc3c2-c2c3c(c4c([n+]21)CCc1ccccc1-4)CCc1ccccc1-3', 'emission maximum', 'nm', 476);
